Test system: PfHDP1 homeodomain (GST-tagged)
ASSAY_OVERVIEW: gcPBM binding intensity (ln(normalized median fluorescence intensity)); higher = stronger DNA binding
Whole data set: some 25,000 sequences, median “ln(normalized median fluorescence intensity)” near 6.7, cut for the highest 2% near 10. This excerpt belongs to a sample that is enriched for the highest values.
Attribute: gcPBM binding intensity (ln)
Output spec: single numeric token, no unit.

Sample CATTAATAAAAAAAAAGTACAAAAAATATATATATT [XGTACX_site2091] ; gcPBM binding intensity (ln) observed: 6.88

====

Test system: PfHDP1 homeodomain (GST-tagged)
ASSAY_OVERVIEW: gcPBM binding intensity (ln(normalized median fluorescence intensity)); higher = stronger DNA binding
Over roughly 25,000 sequences, “ln(normalized median fluorescence intensity)” has its median near 6.7; the highest 2% begin near 10. Only a selection was taken, and the highest values are over-represented in it overall.
yes (1) means recorded gcPBM binding intensity (ln) is 9 or above; no (0) means it is below 9.

Here are 3 sequences together with their reported answers.
ORDERED_RESIDUES: GAACATTTATTGTGTGTGCACAATTCTTTTTTAACC [GTGCAC_site9697]
TESTED_TARGET: PfHDP1 homeodomain (GST-tagged)
CLASSIFICATION: yes (1)

ORDERED_RESIDUES: CCTATTTATATATACACACACATATATAAATAAATA [CACACA_site2991]
TESTED_TARGET: PfHDP1 homeodomain (GST-tagged)
CLASSIFICATION: no (0)

ORDERED_RESIDUES: GTAGTGGTTGAATATACACACATATATATATATATA [CACACA_site2651]
TESTED_TARGET: PfHDP1 homeodomain (GST-tagged)
CLASSIFICATION: yes (1)

Please check the record `TTTAACATTTCAGATGTGCACATTTTCCGAACCAGT` and state if its gcPBM binding intensity (ln) is at or above 9.
yes (1)

Please check the record ATTAGTATATTTCTCTGTACTTACATTAAAATATAA [XGTACX_site2217] and state if its gcPBM binding intensity (ln) is at or above 9.
no (0)

====

Test system: PfHDP1 homeodomain (GST-tagged)
ASSAY_OVERVIEW: gcPBM binding intensity (ln(normalized median fluorescence intensity)); higher = stronger DNA binding
Over roughly 25,000 sequences, “ln(normalized median fluorescence intensity)” has its median near 6.7; the highest 2% begin near 10. Only a selection was taken, and the highest values are over-represented in it overall.
true (1) means recorded gcPBM binding intensity (ln) is 10 or above; false (0) means it is below 10.

ORDERED_RESIDUES: AAGTTTATTATATATAAATTATTATATATATATATA [CACACA_negctrl_site189]
TESTED_TARGET: PfHDP1 homeodomain (GST-tagged)
CLASSIFICATION: false (0)
//
ORDERED_RESIDUES: TTATATGCACTTTTTGCACACGTATGAATAACAAAA [CACACA_site1811]
TESTED_TARGET: PfHDP1 homeodomain (GST-tagged)
CLASSIFICATION: true (1)
//
ORDERED_RESIDUES: ATATATGAAAATATATGTACACAACATATAAAATAG [XGTACX_site5132]
TESTED_TARGET: PfHDP1 homeodomain (GST-tagged)
CLASSIFICATION: false (0)
//
ORDERED_RESIDUES: ATGTATGCAAAAATGGTGCATATTAAATGTATAACA [GTGCAC_site9722]
TESTED_TARGET: PfHDP1 homeodomain (GST-tagged)
CLASSIFICATION: true (1)
//
ORDERED_RESIDUES: ATATGCACTTTTTGCACACGTATGAATAACAAAATA [CACACA_site1810]
TESTED_TARGET: PfHDP1 homeodomain (GST-tagged)
CLASSIFICATION: true (1)

Please check the record ACACATATGCATATATGTACATAATATATTAAACTT [XGTACX_site5975] and state if its gcPBM binding intensity (ln) is at or above 10.
false (0)

Please check the record `CATATATAAATATGTATGCACTTTAACAAAATGTAT` and state if its gcPBM binding intensity (ln) is at or above 10.
false (0)

Where these numbers come from: the supplement of paper PMC11417369
